# Target: Neuronal acetylcholine receptor; alpha4/beta2 (Rattus norvegicus, UniProt P09483+P12390)
# Sequence (P09483 whole entry): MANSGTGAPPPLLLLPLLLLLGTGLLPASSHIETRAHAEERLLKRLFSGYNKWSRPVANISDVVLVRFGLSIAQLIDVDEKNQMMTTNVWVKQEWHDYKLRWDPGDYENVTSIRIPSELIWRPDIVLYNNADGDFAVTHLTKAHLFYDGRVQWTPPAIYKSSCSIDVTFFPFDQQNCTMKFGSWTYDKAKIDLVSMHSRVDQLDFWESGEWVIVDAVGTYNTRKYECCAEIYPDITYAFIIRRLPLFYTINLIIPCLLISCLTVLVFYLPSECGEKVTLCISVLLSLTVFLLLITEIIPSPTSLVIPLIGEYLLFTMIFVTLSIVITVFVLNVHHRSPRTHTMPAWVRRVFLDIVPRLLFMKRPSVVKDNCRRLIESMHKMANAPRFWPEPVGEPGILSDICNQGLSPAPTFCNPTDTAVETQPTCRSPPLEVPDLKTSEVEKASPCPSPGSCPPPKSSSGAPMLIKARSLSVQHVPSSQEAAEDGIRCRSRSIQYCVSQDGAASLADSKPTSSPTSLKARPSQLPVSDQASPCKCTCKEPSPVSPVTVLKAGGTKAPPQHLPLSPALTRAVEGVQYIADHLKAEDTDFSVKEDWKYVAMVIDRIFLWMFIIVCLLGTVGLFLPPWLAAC
# Sequence (P12390 whole entry): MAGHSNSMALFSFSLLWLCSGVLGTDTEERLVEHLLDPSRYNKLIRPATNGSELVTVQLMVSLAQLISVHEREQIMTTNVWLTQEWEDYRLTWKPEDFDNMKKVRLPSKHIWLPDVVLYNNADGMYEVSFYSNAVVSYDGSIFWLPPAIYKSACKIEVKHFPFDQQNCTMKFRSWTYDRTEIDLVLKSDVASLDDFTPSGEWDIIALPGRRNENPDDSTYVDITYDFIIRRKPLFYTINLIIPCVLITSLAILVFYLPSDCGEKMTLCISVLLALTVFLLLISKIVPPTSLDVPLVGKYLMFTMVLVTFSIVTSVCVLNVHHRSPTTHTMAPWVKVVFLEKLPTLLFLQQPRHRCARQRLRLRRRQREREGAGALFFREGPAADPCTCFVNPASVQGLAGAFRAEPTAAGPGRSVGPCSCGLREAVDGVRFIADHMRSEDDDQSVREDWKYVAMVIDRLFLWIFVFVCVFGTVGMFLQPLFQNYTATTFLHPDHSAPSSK
# Assay name: Displacement of [3H]epibatidine from alpha4beta2 nAChR in rat cortical membrane
# Type: cell membranes
pKi: −log10 of the molar value.
Property measured: pKi

Cc1cc([C@@H]2C[C@H]3CC[C@H]2N3)on1 (racemic) [ENDO-EPIBOXIDINE] : 7.15
Cc1cc(C2=CC3CCC2N3C)on1 (racemic) : 6.29
Cc1cc([C@H]2C[C@H]3CC[C@H]2N3)on1 (racemic) [EXO-EPIBOXIDINE] : 9.40
Cc1cc(C2=CC3CCC2N3)on1 (racemic) : 7.30

====

# Target: Neuronal acetylcholine receptor; alpha4/beta2 (Homo sapiens, UniProt P17787+P43681)
# Sequence (P17787 whole entry): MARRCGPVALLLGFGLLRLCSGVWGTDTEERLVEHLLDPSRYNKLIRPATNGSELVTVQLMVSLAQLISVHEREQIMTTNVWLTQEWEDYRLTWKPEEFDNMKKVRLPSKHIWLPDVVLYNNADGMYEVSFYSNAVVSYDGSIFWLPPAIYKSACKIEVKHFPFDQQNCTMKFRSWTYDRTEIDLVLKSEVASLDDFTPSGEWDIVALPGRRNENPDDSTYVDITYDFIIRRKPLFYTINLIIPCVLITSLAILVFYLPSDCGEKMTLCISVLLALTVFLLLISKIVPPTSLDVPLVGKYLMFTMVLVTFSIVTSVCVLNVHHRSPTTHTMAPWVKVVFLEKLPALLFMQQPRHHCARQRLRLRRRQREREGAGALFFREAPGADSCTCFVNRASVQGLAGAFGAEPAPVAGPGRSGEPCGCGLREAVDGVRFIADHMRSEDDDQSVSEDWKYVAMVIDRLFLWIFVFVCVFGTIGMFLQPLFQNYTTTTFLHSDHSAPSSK
# Sequence (P43681 whole entry): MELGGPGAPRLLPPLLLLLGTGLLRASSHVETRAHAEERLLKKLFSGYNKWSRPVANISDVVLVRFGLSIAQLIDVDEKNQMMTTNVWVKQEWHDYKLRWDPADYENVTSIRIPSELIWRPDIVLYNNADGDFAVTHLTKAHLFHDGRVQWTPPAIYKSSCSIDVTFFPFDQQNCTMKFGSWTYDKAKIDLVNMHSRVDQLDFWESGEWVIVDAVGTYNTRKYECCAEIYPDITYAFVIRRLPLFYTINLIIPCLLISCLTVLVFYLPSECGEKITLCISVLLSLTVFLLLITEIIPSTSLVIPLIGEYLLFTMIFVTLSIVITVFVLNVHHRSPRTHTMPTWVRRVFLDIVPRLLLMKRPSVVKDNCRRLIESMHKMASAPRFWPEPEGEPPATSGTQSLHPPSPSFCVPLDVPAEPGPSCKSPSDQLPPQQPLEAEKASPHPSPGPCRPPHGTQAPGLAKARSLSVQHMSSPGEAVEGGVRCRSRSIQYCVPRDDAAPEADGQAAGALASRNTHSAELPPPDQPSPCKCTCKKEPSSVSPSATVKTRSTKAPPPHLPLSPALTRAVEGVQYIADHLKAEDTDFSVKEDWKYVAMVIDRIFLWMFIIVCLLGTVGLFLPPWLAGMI
# Assay name: Binding affinity to alpha4beta2 nAChR
# Format: protein-complex assay
Property measured: Ki (nM)

Cc1cc([C@H]2C[C@H]3CC[C@H]2N3)on1 (racemic) [EXO-EPIBOXIDINE] : 0.46

====

# Target: Neuronal acetylcholine receptor subunit alpha-7 (Rattus norvegicus)
# Sequence (Q05941 whole entry): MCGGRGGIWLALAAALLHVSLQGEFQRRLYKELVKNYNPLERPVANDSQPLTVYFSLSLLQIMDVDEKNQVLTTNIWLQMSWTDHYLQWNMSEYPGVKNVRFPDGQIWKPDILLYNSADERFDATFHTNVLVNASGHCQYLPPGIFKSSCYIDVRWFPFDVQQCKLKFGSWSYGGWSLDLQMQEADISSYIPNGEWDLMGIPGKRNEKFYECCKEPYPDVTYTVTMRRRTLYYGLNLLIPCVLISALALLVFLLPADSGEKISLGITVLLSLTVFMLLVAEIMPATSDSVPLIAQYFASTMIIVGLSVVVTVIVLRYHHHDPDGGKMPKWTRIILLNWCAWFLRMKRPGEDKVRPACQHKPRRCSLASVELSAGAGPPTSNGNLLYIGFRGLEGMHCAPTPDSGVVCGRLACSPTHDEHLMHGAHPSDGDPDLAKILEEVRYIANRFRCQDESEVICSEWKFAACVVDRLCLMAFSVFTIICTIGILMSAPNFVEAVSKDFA
# Assay name: Displacement of [125I]alpha-bungarotoxin from alpha7 nAChR in rat cortical membrane
Property measured: Ki (nM)

Cc1cc(C2=CC3CCC2N3)on1 (racemic) : 1600
Cc1cc(C2=CC3CCC2N3C)on1 (racemic) : 394
Cc1cc([C@@H]2C[C@H]3CC[C@H]2N3)on1 (racemic) [ENDO-EPIBOXIDINE] : 230
Cc1cc([C@H]2C[C@H]3CC[C@H]2N3)on1 (racemic) [EXO-EPIBOXIDINE] : 6

====

# Target: Neuronal acetylcholine receptor; alpha4/beta2 (Homo sapiens, UniProt P17787+P43681)
# Assay name: Displacement of [3H]cystisine from alpha4beta2 nAChR
# Format: protein-complex assay
pKi: −log10 of the molar value.
Property measured: pKi

Cc1cc([C@H]2C[C@H]3CC[C@H]2N3)on1 (racemic) [EXO-EPIBOXIDINE] : 8.88
